The values you see were collected from patent US20140005125A1.

# studySystem: T1, Recombinant human PDGF-BB (human, UniProt P01127 82-190)
# T1 construct: For SPR it was chemically biotinylated on primary amines and captured on neutravidin; also called PDGF-BB (human); Reliatech 200-055
# T1 sequence (P01127 82-190 limits assumed): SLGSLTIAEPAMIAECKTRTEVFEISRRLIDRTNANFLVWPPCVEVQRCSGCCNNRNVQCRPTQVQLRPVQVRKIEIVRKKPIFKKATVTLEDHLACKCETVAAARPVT
# assayText: receptor competition ELISA: DARPin preincubated with PDGF-BB, free PDGF-BB captured on coated PDGFRbeta/Fc; mean IC50
Entries annotated with measured pIC50
// scale note: pIC50 = -log10(conc_M); give the bare number

DARPin #50 (designed binder) MRGSHHHHHHGSDLGKKLLEAARAGQDDEVRELLKAGADVNAKDLNGQTPLHLAADIGHLEIVEVLLKAGADVNAKDYAGSTPLRLAAWAGHLEIVEVLLKAGADVNAKDYFGYTPLHLAAYFGHLEIVEVLLKAGADVNAQDKFGKTAFDISIDNGNEDLAEILQKLN = 10.49

Data request: Answer with the recorded pIC50 for the binder listed here: DARPin #56 (designed binder) MRGSHHHHHHGSDLDKKLLEAARAGQDDEVRILLKAGADVNAKDLNGQTPLHLAADIGHLEIVEVLLKAGADVNAKDYAGSTPLRLAAWAGHLEIVEVLLKAGADVNAKDYFGYTPLHLAAYFGHLEIVEVLLKAGADVNAQDKFGKTPADIAADNGHEDIAEVLQKLN
Data returned: 9.77

Data request: Entry DARPin #47 (designed binder) MRGSHHHHHHGSDLGKKLLEAARAGQDDEVRILLKAGADVNAKDKSGHTPLHLAAYSGHLEIVEVLLKAGADVNAKDQEGTTPLHFAASVGHLEIVEVLLKAGADVNAQDHYGATPADLAALIGHEDIAEVLQKLN needs its pIC50 filled in; supply it.
Data returned: 9.85
